# TEST_SYSTEM: JAK1 (Homo sapiens, UniProt P23458)
# Construct: made in house; host or cells: SF9 insect cells (baculovirus)
# Sequence (P23458 852-1154): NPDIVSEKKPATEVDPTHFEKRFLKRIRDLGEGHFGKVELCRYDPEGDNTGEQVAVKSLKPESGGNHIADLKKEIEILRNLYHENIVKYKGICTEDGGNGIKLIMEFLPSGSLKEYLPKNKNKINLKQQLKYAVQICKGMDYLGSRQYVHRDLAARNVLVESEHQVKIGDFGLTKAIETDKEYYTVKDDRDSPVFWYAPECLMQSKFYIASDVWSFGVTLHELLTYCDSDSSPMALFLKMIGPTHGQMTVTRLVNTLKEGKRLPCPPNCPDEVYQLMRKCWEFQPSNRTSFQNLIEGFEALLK
# TEST: JAK1 inhibition (Table 4)
# Assay type: biochemical
# SETUP_CONDITIONS: read-out: JAK1 Ki
pKi: −log10 of the molar value.
PARAMETER: pKi

Here's what some known entries look like.
COMPOUND	TEST_SYSTEM	pKi
COCCN1CC[C@@H](n2c([C@@H](C)O)nc3cnc4[nH]ccc4c32)C(F)(F)C1	JAK1 (Homo sapiens, UniProt P23458)	8.60
CC(F)(F)CCc1nc2cnc3[nH]ccc3c2n1C1CCN(CCC#N)CC1	JAK1 (Homo sapiens, UniProt P23458)	8.07
CN1CCOCC1C(=O)N1CCC(n2cnc3cnc4[nH]ccc4c32)CC1 (single isomer, unassigned) [Example 197a]	JAK1 (Homo sapiens, UniProt P23458)	6.92

1 = CC(O)c1nc2cnc3[nH]ccc3c2n1C1CCCN(C(=O)C2CC2C)C1 (stereo not shown)
2 = CCS(=O)(=O)NCc1nc2cnc3[nH]ccc3c2n1C1CCN(CCC#N)CC1
Query: Among 1 and 2 , which shows a numerically higher pKi result? Give the label under which the chosen entry appears.
Reply: 2
(2: 8.11, 1: 7.26)

I = COCCN1CCC(n2c(C(C)O)nc3cnc4[nH]ccc4c32)CC1 (racemic)
II = c1cncc(-c2nc3cnc4[nH]ccc4c3n2C2CCNCC2)c1
III = CCN1CCC(n2c(CO)nc3cnc4[nH]ccc4c32)C(F)(F)C1 (racemic)
IV = CCN1CCC(n2cnc3cnc4[nH]ccc4c32)C(F)(F)C1 (racemic)
Query: Could you please sort these 4 entries by pKi from high to low? A complete answer lists every label in the requested sequence.
Reply: III, IV, I, II
(III: 8.74, IV: 8.54, I: 7.90, II: 6.74)

1 = C[C@@H](O)c1nc2cnc3[nH]ccc3c2n1[C@H]1CC[C@H](NCCC#N)CC1
2 = COCCN(C)C(=O)NC1CCC(n2c(C)nc3cnc4[nH]ccc4c32)C1 (racemic)
3 = CCOC(=O)NCCc1nc2cnc3[nH]ccc3c2n1C1CCN(CC)CC1(F)F (stereo not shown) [Example 678]
Query: Ranking field: pKi; order: falling. Put the labels in the requested order and list them out.
Reply: 1, 3, 2

P = N#Cc1ccc(S(=O)(=O)N2CC[C@@H](n3cnc4cnc5[nH]ccc5c43)C2)cc1
Q = Cc1nc2cnc3[nH]ccc3c2n1[C@H]1CC[C@H](CO)CC1
R = C[C@@H](O)c1nc2cnc3[nH]ccc3c2n1[C@H]1CC[C@@H](N2CCC(F)(F)CC2)CC1
S = CC(O)c1nc2cnc3[nH]ccc3c2n1C1CCN(CC(F)(F)F)CC1 (racemic)
Query: Rank entries according to their pKi, from the largest number down. Please write the labels in the order that was asked for.
Reply: Q, S, P, R
(Q: 8.92, S: 8.42, P: 7.65, R: 7.28)

I = CC(CC#N)N1CCC(n2c(C3CC(=O)N(C)C3)nc3cnc4[nH]ccc4c32)CC1 (racemic)
II = OCc1nc2cnc3[nH]ccc3c2n1C1CCN(Cc2ccccc2)CC1
Query: Which one would you say has the larger pKi value: I , or II ? Identify your pick by its label.
Reply: II

1 = O=C(NC1CCC(n2nnc3cnc4[nH]ccc4c32)C1)OCC(F)(F)F (racemic)
2 = CC(O)c1nc2cnc3[nH]ccc3c2n1C1CC2CCC1O2 (single isomer, unassigned) [Example 905]
3 = O=S1(=O)CCN(C2CCC(n3cnc4cnc5[nH]ccc5c43)CC2)CC1 (stereo not shown)
4 = Cn1ncc2c1CC[C@@H](n1cnc3cnc4[nH]ccc4c31)C2
5 = COCC(=O)NC1CCCC(n2cnc3cnc4[nH]ccc4c32)C1 (single isomer, unassigned) [Example 483]
Query: # sort list by recorded pKi, greatest to least // format: requested-order list of labels
Reply: 3, 1, 4, 2, 5

P = N#CCCN1CCC(n2c(CC3CCOCC3)nc3cnc4[nH]ccc4c32)CC1
Q = C[C@@H](O)c1nc2cnc3[nH]ccc3c2n1C1CCN(Cc2ccn[nH]2)CC1
R = CC(C)C(=O)NCc1nc2cnc3[nH]ccc3c2n1C1CCN(CCC#N)CC1
S = O=c1ccn(Cc2nc3cnc4[nH]ccc4c3n2C2CCOCC2)c(=O)[nH]1
T = CS(=O)(=O)NCCc1nc2cnc3[nH]ccc3c2n1C1CC2CCC1C2 (stereo not shown)
Query: Order the records, beginning with the lowest pKi and ending with the highest. Use the labels to give the ranking in the order requested.
Reply: S, P, R, Q, T

a = CC(O)c1nc2cnc3[nH]ccc3c2n1C1CC2CCC1O2 (stereo not shown) [Example 906]
b = CC(C)(C#N)CN1CCC(n2cnc3cnc4[nH]ccc4c32)CC1
Query: Quick check, higher pKi between a and b ? # answer = label of selected item
Reply: b

----------
# TEST_SYSTEM: JAK3 (Homo sapiens, UniProt P52333)
# Construct: made in house; host or cells: SF9 insect cells (baculovirus)
# Sequence (P52333 783-1124): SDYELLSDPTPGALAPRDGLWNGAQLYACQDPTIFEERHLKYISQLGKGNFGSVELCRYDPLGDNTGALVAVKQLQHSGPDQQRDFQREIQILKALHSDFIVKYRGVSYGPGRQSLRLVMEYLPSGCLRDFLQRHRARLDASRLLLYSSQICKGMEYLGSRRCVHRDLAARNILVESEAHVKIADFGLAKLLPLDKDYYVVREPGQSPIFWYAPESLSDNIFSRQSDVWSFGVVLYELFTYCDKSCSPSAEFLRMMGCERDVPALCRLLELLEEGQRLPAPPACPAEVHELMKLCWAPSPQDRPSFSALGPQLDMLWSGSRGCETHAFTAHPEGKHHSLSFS
# TEST: JAK3 inhibition (Table 4)
# Format: biochemical
# SETUP_CONDITIONS: read-out: JAK3 Ki
pKi: −log10 of the molar value.
PARAMETER: pKi

COMPOUND	pKi
Cc1nc2cnc3[nH]ccc3c2n1C1CCN(C(C)C)CC1 [Example 547]	5.85
C[C@H](O)c1nc2cnc3[nH]ccc3c2n1[C@@H]1CCCN(C(=O)CC#N)C1 [Example 662]	6.07
CN(C)CC(=O)NCCc1nc2cnc3[nH]ccc3c2n1C1CCCCC1 [Example 510]	6.88

I = OCCc1nc2cnc3[nH]ccc3c2n1[C@@H]1CCCN(Cc2ccccc2)C1 [Example 15]
II = C[C@@H](O)c1nc2cnc3[nH]ccc3c2n1C1CCC(CCC#N)CC1 (stereo partly drawn) [Example 1007]
Query: Of the two listed items, which has the higher pKi? First: I Second: II Please reply using the label of the selected record.
Reply: II
(II: 7.73, I: 6.11)

A = CCN1CC[C@@H](n2c(CCNS(=O)(=O)CC)nc3cnc4[nH]ccc4c32)[C@@H](F)C1 [Example 681]
B = CC(C)(C)OC(=O)NC1CC(n2cnc3cnc4[nH]ccc4c32)C1 (stereo not drawn) [Example 317]
Query: Which numeric pKi is bigger, that of A or that of B ? # respond with the chosen item's label
Reply: B
(B: 7.43, A: 6.88)

a = CCC(COC)n1cnc2cnc3[nH]ccc3c21 (racemic) [Example 419]
b = O=C(Cc1nc2cnc3[nH]ccc3c2n1C1CCN(Cc2ccccc2)CC1)N1CC(F)C1 [Example 258]
Query: Which entry has a larger number for pKi, a or b ? Reply briefly: the label of your chosen item.
Reply: b
(b: 7.84, a: 6.80)

----------
# TEST_SYSTEM: TYK2 (Homo sapiens, UniProt P29597)
# Sequence (P29597 873-1187): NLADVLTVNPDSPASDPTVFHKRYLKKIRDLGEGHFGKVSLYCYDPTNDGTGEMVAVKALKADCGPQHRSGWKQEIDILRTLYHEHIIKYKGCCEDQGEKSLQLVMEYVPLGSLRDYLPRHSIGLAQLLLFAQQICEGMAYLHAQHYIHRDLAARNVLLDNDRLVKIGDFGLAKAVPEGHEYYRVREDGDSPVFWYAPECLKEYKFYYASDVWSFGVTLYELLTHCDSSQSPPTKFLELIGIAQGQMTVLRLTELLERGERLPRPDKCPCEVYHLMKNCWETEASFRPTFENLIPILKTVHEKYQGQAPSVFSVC
PARAMETER: Ki (nM)

Sample answers from the record:
MOLECULE	Ki / nM
FC(F)(F)CNC1CCC(n2nnc3cnc4[nH]ccc4c32)C1 (racemic)	83.1
CC(C)(C)OC(=O)NC1CCC(n2cnc3cnc4[nH]ccc4c32)C1 (racemic)	222

P = CS(=O)(=O)NCc1nc2cnc3[nH]ccc3c2n1C1CC2CCC1O2 (single isomer, unassigned) [Example 850]
Q = O=S(=O)(CCO)N1CCC(n2cnc3cnc4[nH]ccc4c32)CC1
Query: Endpoint returns the identifier whose Ki is numerically larger, either P or Q . Your answer should be the label of the entry you select.
Reply: P
(P: 361 nM, Q: 30.7 nM)

----------
# TEST_SYSTEM: JAK1 (Homo sapiens, UniProt P23458)
# Construct: made in house; host or cells: SF9 insect cells (baculovirus)
# TEST: JAK1 inhibition (Table 4)
# Format: biochemical
# SETUP_CONDITIONS: read-out: JAK1 Ki
PARAMETER: Ki (nM)

MOLECULE	READOUT_UNITS	REPORTED_MEASUREMENT
CN(CCO)C(=O)Cc1nc2cnc3[nH]ccc3c2n1C1CCCOC1 (racemic)	nM	171
N#CCCN1CCC(n2c(C#N)nc3cnc4[nH]ccc4c32)CC1	nM	1.21
N#CCN1CCC[C@H]1C(=O)N1CCC(n2cnc3cnc4[nH]ccc4c32)CC1	nM	150

I = N#Cc1ccc(N[C@H]2CC[C@H](n3cnc4cnc5[nH]ccc5c43)CC2)nc1
II = O=C1CCC(n2cnc3cnc4[nH]ccc4c32)CN1 (racemic)
III = OCc1nc2cnc3[nH]ccc3c2n1C1CCCOC1 (single isomer, unassigned) [Example 463]
IV = C[C@@H](O)c1nc2cnc3[nH]cc(Br)c3c2n1C1CCC(CC#N)CC1 (some centres unmarked)
V = c1cc2c(ncc3ncn(C4CCCOC4)c32)[nH]1 (single isomer, unassigned) [Example 465]
Query: Ascending by Ki, please: list the molecules accordingly. Answer with the labels in sequence, matching the requested order.
Reply: IV, I, III, V, II
